protocolNotes: in vivo
measurementParameters: female, cynomolgus monkey, sc, 2 mg/kg/day, Average Concentration, Choroid

# smilesStr, valueUnits, concentration at 29 day
data = [
    ("Cc1cc(O)cc(C)c1C[C@H](NC(=O)[C@H](N)CCCNC(=N)N)C(=O)N[C@@H](CCCCN)c1nc(Cc2ccccc2)no1.Cl.Cl.Cl", "ng/g", 2500),
]

---

protocolNotes: in vivo
measurementParameters: male, cynomolgus monkey, sc, 5 mg/kg/day, Average Concentration, Conjunctiva

# smilesStr, valueUnits, concentration at 29 day
data = [
    ("Cc1cc(O)cc(C)c1C[C@H](NC(=O)[C@H](N)CCCNC(=N)N)C(=O)N[C@@H](CCCCN)c1nc(Cc2ccccc2)no1.Cl.Cl.Cl", "ng/g", 3560),
]
